test.system: hD2L receptor (Homo sapiens, UniProt P14416)
Construct: purchased BioSignal Packard Inc., Montreal, Canada
Sequence (P14416 whole entry): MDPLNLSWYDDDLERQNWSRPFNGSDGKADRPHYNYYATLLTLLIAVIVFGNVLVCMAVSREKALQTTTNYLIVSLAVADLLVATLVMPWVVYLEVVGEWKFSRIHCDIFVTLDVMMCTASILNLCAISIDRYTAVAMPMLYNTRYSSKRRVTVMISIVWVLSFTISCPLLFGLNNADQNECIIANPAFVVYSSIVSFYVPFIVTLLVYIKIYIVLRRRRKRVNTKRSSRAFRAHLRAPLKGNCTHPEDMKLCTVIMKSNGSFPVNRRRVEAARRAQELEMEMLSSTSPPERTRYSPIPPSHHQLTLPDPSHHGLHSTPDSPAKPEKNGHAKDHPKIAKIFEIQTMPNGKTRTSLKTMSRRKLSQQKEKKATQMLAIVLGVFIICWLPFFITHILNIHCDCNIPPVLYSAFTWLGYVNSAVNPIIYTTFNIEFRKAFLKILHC
measurement.description: Radioligand binding, dopamine D2 ([3H]spiperone)
experimental.context: read-out: Binding affinity (Inhibition rate % at 10 μM) D2
Can you tell me inhibition at 10 µM for the items I'm about to list?
Give bare numbers, in %.

Recorded results for 4 molecules are shown here.
INSERT INTO assay_data (molecule, reported_result) VALUES
  ('CC1(c2ccc(Br)cc2Br)C(=O)Nc2cc(Cl)ccc2C1=O (centres unmarked) [Example 45]', 13),
  ('CN1CCN(c2ccc3c(c2)NC(=O)C(C)(c2ccc(N)cc2)C3=O)CC1 (centres unmarked) [Example 50]', 8.2),
  ('CC1(c2ccc(O)c(Br)c2)C(=O)Nc2cc(Cl)cc(Cl)c2C1=O (centres unmarked) [Example 24]', 5),
  ('C[C@H](NC(=O)Oc1cccc(C2(C)C(=O)Nc3cc(Cl)cc(Cl)c3C2=O)c1)c1ccccc1 (some centres unmarked) [Example 26]', 26.5);

# evaluate next
Supply measured inhibition at 10 µM of CC1(c2cccc(O)c2)C(=O)Nc2cc(Cl)cc(Cl)c2C1=O (centres unmarked) [Example 20] in your reply.
10.9

----------
Can you tell me IC50 for the items I'm about to list?
test.system: human serotonin 5-HT6 receptor (Homo sapiens)
Construct: made in house; host or cells: Sf21 insect cells (pBacPAK8 baculovirus vector)
Sequence (P50406 whole entry): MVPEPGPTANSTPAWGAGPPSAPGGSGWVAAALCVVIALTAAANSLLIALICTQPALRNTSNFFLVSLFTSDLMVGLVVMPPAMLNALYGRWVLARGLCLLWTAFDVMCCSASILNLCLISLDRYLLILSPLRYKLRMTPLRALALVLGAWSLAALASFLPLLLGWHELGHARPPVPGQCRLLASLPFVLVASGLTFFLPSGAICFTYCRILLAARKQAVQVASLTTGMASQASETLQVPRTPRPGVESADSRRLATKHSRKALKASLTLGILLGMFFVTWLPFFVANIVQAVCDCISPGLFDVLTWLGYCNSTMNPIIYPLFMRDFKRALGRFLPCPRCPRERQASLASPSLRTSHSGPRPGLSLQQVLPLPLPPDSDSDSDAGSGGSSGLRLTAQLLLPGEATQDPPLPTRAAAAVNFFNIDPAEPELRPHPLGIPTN
measurement.description: [3H]LSD binding at cloned 5-HT6 receptors
experimental.context: [3H]LSD 1.87 nM, cloned receptor membranes, 37° C., 60 min; read-out: IC50
Answers are plain numbers, in µM.

Required: IC50, one value per compound below.
1. COc1ccc(C2(C)C(=O)Nc3cc(OC)cc(Cl)c3C2=O)cc1 (centres unmarked)
2. CCN(CC)c1ccc(C2(C)C(=O)Nc3cc(Cl)cc(Cl)c3C2=O)cc1 (centres unmarked)
3. CC1(c2ccc(O)c(Br)c2)C(=O)Nc2cc(Cl)cc(Cl)c2C1=O (centres unmarked)
4. CC1(c2ccccc2)C(=O)Nc2cc(Cl)ccc2C1=O (centres unmarked)
5. CNc1ccc(C2(C)C(=O)Nc3cc(Cl)cc(Cl)c3C2=O)cc1 (centres unmarked)

[1.36, 0.015, 0.126, 2.47, 0.418]

----------
test.system: 5-HT1a (Homo sapiens, UniProt P08908)
Construct: purchased Euroscreen/BioSignal Packard Inc
Sequence (P08908 1-422): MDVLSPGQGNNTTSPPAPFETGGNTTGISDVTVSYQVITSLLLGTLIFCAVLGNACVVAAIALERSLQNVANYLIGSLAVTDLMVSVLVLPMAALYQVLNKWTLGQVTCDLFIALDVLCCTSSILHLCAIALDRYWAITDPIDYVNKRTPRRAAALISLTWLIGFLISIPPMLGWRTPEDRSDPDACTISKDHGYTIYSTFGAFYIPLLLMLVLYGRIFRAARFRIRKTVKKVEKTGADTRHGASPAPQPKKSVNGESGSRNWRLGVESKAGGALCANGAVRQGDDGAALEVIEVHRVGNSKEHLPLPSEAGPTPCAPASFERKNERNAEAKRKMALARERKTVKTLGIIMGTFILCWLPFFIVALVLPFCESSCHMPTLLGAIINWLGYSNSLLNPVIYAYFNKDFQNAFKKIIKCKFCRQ
measurement.description: Radioligand binding, 5-HT1a ([3H]8-OH-DPAT)
experimental.context: read-out: Binding affinity (Inhibition rate % at 10 μM) 5HT1a
Can you tell me inhibition at 10 µM for the items I'm about to list?
Answers are plain numbers, in %.

Recorded results for 8 molecules are shown here.
INSERT INTO measurements (molecule, uom, reported_result) VALUES
  ('CN(C)c1ccc(C2(C)C(=O)Nc3cc(Cl)cc(Cl)c3C2=O)cc1 (stereo not drawn)', '%', 50.2),
  ('CC1(c2cccc(OCc3ccccc3)c2)C(=O)Nc2cc(Cl)cc(Cl)c2C1=O (stereo not drawn)', '%', 88.8),
  ('COc1ccc(C2(C)C(=O)Nc3cc(Cl)cc(Cl)c3C2=O)cc1 (stereo not drawn)', '%', 40.2),
  ('CC1(c2ccc(O)c(N)c2)C(=O)Nc2c(Br)cc(Br)cc2C1=O (stereo not drawn)', '%', 0),
  ('CC1(c2ccc([N+](=O)[O-])cc2)C(=O)Nc2cc(Cl)ccc2C1=O (stereo not drawn)', '%', 10.4),
  ('CN1CCN(c2cc(Cl)c3c(c2)NC(=O)C(C)(c2ccc(N)cc2)C3=O)CC1 (stereo not drawn)', '%', 35),
  ('CCN(CC)c1ccc(C2(C)C(=O)Nc3cc(Cl)cc(Cl)c3C2=O)cc1 (stereo not drawn)', '%', 6.5),
  ('CC1(c2ccc(N)cc2)C(=O)Nc2cc(Cl)ccc2C1=O (stereo not drawn)', '%', 51.9);

# evaluate next
Supply measured inhibition at 10 µM of COc1cc(Cl)c2c(c1)NC(=O)C(C)(c1ccccc1)C2=O (stereo not drawn) in your reply.
18.9

The reported measurements were obtained from patent US7592457B2.
